test: Mice pharmacokinetic study after oral administration of a mixture of 11 TKIs; assay type: in vivo, FVB wild-type mice; details: male, FVB wild-type, mouse, whole blood, po, 1 mg/kg
value kind: concentration at 60 min (ng/mL)

Would you please look over these solved cases?
1. Cc1nc(Nc2ncc(C(=O)Nc3c(C)cccc3Cl)s2)cc(N2CCN(CCO)CC2)n1 :: 24.8
2. COc1cc2ncnc(Nc3ccc(F)c(Cl)c3)c2cc1OCCCN1CCOCC1 :: 33.2

[1] CNC(=O)c1ccccc1Sc1ccc2c(/C=C/c3ccccn3)n[nH]c2c1
[2] CCN(CC)CCNC(=O)c1c(C)[nH]c(/C=C2\C(=O)Nc3ccc(F)cc32)c1C [Sunitinib, sunitinib malate]
// query Input pair: 1 , 2 . Output: entry with lower concentration at 60 min. # reply format: chosen label
// result 2
